Kindly supply the reported absorbance 490 nm/630 nm values for the records listed here.
- SYSTEM: T1, Ala mutant having 3-amino acid substitution, SEQ ID NO: 45 (human)
- T1 peptide: EENAAAQWMQDEMEIGY
- TEST_DESCRIPTION: ELISA, peptide on plate (10 ug/mL)
Reply numerically in OD, unit not repeated.

-- ask Returns the measured absorbance 490 nm/630 nm for the input binder. Input: A11 (antibody, IgG1, V domains shown, Chicken variable regions in mouse chimeric antibody (IgG1) expression vectors; also called anti-PAD4 antibody A11; A11 etc) VH: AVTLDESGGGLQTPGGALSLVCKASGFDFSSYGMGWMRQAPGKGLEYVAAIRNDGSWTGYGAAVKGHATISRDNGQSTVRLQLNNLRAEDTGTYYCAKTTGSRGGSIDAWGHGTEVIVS VL: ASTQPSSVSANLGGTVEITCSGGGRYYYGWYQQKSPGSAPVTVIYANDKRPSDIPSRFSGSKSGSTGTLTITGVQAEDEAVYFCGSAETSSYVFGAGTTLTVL
-- reply 0.039

-- ask # iterate: H7 (antibody, IgG1, V domains shown, Chicken variable regions in mouse chimeric antibody (IgG1) expression vectors; also called anti-PAD4 antibody H7; A11 etc) VH: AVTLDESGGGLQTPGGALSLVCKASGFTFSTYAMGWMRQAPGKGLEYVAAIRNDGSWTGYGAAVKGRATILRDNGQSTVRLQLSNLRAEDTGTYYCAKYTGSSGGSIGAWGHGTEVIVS VL: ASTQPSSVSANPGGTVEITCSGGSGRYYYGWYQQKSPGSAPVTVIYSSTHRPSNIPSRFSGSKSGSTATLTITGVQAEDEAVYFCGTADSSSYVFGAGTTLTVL
-- reply 0.016

-- ask Follow-up item: G6 (antibody, IgG1, V domains shown, Chicken variable regions in mouse chimeric antibody (IgG1) expression vectors; also called anti-PAD4 antibody G6; A11 etc) VH: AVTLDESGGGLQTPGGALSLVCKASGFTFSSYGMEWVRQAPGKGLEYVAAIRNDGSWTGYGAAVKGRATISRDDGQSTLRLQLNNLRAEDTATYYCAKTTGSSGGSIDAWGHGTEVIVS VL: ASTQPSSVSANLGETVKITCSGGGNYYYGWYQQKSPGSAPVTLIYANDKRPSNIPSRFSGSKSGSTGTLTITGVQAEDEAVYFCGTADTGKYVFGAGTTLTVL
-- reply 0.018

-- ask Then G9 (antibody, IgG1, V domains shown, Chicken variable regions in mouse chimeric antibody (IgG1) expression vectors; also called anti-PAD4 antibody G9; A11 etc) VH: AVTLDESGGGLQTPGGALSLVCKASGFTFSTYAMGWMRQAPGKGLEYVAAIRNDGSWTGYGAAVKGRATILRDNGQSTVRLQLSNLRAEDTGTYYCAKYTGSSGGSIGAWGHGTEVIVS VL: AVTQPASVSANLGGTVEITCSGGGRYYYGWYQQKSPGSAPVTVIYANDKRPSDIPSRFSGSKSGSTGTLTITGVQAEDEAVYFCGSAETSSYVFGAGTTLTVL ?
-- reply 0.019

-- ask Same question for E9 (antibody, IgG1, V domains shown, Chicken variable regions in mouse chimeric antibody (IgG1) expression vectors; also called anti-PAD4 antibody E9; A11 etc) VH: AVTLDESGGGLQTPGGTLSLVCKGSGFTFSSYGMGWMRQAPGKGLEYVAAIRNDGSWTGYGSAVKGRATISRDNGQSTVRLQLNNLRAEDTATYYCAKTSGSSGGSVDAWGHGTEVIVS VL: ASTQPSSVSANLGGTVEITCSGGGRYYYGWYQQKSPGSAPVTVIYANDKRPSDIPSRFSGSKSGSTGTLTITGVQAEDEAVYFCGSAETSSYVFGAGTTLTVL please.
-- reply 0.022

-- ask Same read-out for G8 (antibody, IgG1, V domains shown, Chicken variable regions in mouse chimeric antibody (IgG1) expression vectors; also called anti-PAD4 antibody G8; A11 etc) VH: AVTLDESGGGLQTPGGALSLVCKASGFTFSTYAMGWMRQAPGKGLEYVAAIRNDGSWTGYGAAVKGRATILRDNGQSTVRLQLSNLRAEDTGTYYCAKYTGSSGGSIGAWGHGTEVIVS VL: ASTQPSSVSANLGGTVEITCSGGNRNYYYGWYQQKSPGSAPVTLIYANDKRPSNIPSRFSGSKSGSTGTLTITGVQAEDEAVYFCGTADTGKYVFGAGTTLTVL ?
-- reply 0.065
